Tested on: ACS
PROTOCOL: coupled spectrophotometric assay of AMP formation
Type: biochemical, Gordonia sp. NB4-1Y
REPORTED CONDITIONS: 2.5 mM ATP, 1.5 mM CoA, 5 mM MgCl2, 1 mM DTT, 50 mM potassium phosphate pH 7.5, 25 °C
ASSAY READOUT: Km (mM)

compound="CC(=O)O [acetate]" recorded_measurement=78.3
compound="CCC(=O)O [propionic acid]" recorded_measurement=1.7

[a] CCCCC(=O)O [pentanoic acid]
[b] O=C(O)CCCC(F)(F)F [1:4 FTCA, 5,5,5-trifluoropentanoic acid]
Ask: // returns a or b , whichever has the lower Km Your answer should be the label attached to the chosen record.
Result: a
